# Tested on: Mus musculus
# Experiment Notes: Radioprotective activity in C57Bl/6 mouse assessed as median survival time at 100 mg/kg, ip administered 5 min prior to gamma-irradation at 8.5 Gy and measured after 30 days (reference value: 12 days)
# Assay type: functional
Reported Property: MST (days)
Express it in days; write the number only.

In [3]: df
Out[3]:
                                   compound  target_or_test_system  reported_property  unit_abbrev  meas_value
0  Cc1ccccc1OCC(O)CN1CCN(CCO)CC1 (stereo not given)           Mus musculus                MST         days           7
1  COc1ccccc1OCC(O)CN1CCN(CCO)CC1 (stereo not given)           Mus musculus                MST         days          13
2  C=CCc1ccc(OCC(O)CN2CCN(CCO)CC2)c(OC)c1 (stereo not given)           Mus musculus                MST         days          12
3  COc1cccc(OC)c1OCC(O)CN1CCN(CCO)CC1 (stereo not given)           Mus musculus                MST         days          12

// switching to the query compound
Documented MST of COc1cc([N+](=O)[O-])ccc1OCC(O)CN1CCN(CCO)CC1 (stereo not given) : 11
